target: T1, Bovine serum albumin (bovine, UniProt P02769 25-607); test: specificity ELISA, coated antigen, IgG 0.2 uM
T1 construct: unrelated control antigen in the specificity ELISA; also called BSA
T1 sequence (P02769 25-607 limits assumed): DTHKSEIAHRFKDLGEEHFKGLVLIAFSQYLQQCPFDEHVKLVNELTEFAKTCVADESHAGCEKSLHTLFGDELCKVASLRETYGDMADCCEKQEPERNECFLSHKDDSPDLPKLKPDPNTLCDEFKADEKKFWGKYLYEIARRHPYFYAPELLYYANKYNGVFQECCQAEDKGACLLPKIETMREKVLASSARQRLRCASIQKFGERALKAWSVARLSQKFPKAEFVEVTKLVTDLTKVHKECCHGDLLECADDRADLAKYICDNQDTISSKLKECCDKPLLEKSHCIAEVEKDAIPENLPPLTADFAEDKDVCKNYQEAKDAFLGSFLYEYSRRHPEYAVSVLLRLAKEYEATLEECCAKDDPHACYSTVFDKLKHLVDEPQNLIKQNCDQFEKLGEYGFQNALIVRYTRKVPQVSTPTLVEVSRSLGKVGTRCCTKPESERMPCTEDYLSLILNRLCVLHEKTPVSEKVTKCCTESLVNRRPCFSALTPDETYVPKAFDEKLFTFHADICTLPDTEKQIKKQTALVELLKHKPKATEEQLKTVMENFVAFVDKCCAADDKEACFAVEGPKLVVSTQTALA
endpoint name: Signal over background
Answers are plain numbers.

input: Give its Signal over background value. Item: Antibody 7 (antibody, human IgG1, lambda, V domains shown, germlined clone of NOV0806 (HCDR2-matured NOV0442_VL[Y49,G50,N51Q]); human IgG1; final lead; also called NOV0958; NOV958) VH: QVQLVESGGGLVKPGGSLRLSCAASGFTFSSYVVHWVRQAPGKGLEWVGRIRLETHGYAAEYAASVKGRFTISRDDSKNTLYLQMNSLKTEDTAVYYCARVERSKSGFDNWGQGTLVTVSS VL: QSVLTQPPSVSGAPGQRVTISCTGSSSNIGAGYSVHWYQQLPGTAPKLLIYGQSERPSGVPDRFSGSKSGTSASLAITGLQAEDEADYYCQSWDSSQTLVVFGGGTKLTVLG
output: 1
